assay: Principal components analysis of amino acid physical properties from 31 studies; settings: first principal component; index of amino acid polarity or hydrophobicity, most hydrophobic highest
readout kind: Prin1

Look over these answered cases.
compound	Prin1
CC(N)C(=O)O (centres unmarked)	0.72
NC(CC(=O)O)C(=O)O (centres unmarked)	-6.04
NC(Cc1c[nH]cn1)C(=O)O (centres unmarked)	-2.55
NC(=O)CC(N)C(=O)O (centres unmarked)	-4.35
O=C(O)C1CCCN1 (centres unmarked)	-0.03

Task: Dear colleague, I am looking for the recorded Prin1 of the following compound: NC(CCC(=O)O)C(=O)O (centres unmarked)
Result: -5.70

Task: // next record "NCC(=O)O"
Result: -0.76

Task: Input NCCCCC(N)C(=O)O (centres unmarked)
Result: -6.68

Task: # repeat for NC(=O)CCC(N)C(=O)O (centres unmarked)
Result: -3.97

Task: Try this compound too: CC(O)C(N)C(=O)O (centres unmarked)
Result: -1.42

Task: And then N=C(N)NCCCC(N)C(=O)O (centres unmarked) , what is it?
Result: -6.30

* * *

test: Principal components analysis of amino acid physical properties from 31 studies; conditions: third principal component
Class (required): determined from Prin3; valid ranges are b0 = under -0.2, b1 = from -0.2 up to 1, b2 = 1 and over

Please review the entries below; each comes with its answer.
molecule	answer label
NC(=O)CC(N)C(=O)O (centres unmarked)	b1
NC(CCC(=O)O)C(=O)O (centres unmarked)	b0
N=C(N)NCCCC(N)C(=O)O (centres unmarked)	b0
NC(CC(=O)O)C(=O)O (centres unmarked)	b1
CC(O)C(N)C(=O)O (centres unmarked)	b1

Task: Class for O=C(O)C1CCCN1 (centres unmarked) ?
Result: b2

Task: What do you get for NC(=O)CCC(N)C(=O)O (centres unmarked) ?
Result: b1

Task: Here is the next molecule: NC(Cc1c[nH]cn1)C(=O)O (centres unmarked)
Result: b0

* * *

assay: Principal components analysis of amino acid physical properties from 31 studies; settings: second principal component; related to size or volume, smallest has highest score
readout kind: Prin2
Note: the reply should be a number with no unit written.

molecule	Prin2
O=C(O)C1CCCN1 (centres unmarked)	-0.36

Task: Which Prin2 is listed for N=C(N)NCCCC(N)C(=O)O (centres unmarked) ?
Result: -2.93

Task: What do you have for NCCCCC(N)C(=O)O (centres unmarked) ?
Result: -1.32

Task: Another molecule to look at: CC(N)C(=O)O (centres unmarked)
Result: 2.48

Task: Item: NC(=O)CCC(N)C(=O)O (centres unmarked)
Result: -0.47

* * *

List of Prin3 values.
assay: Principal components analysis of amino acid physical properties from 31 studies; conditions: third principal component
Reply with the value as a number alone.

Examples with answers:
compound	Prin3
CC(N)C(=O)O (stereo not drawn)	1.42
NCC(=O)O	1.21

Now turn to the next compound.
Task: I have this compound here, NCCCCC(N)C(=O)O (stereo not drawn) , and I need its recorded Prin3.
Result: 1.16

* * *

Measured Prin2, listed per entry.
experiment: Principal components analysis of amino acid physical properties from 31 studies; conditions: second principal component; related to size or volume, smallest has highest score
Answer field: number only, no words.

Task: Query (molecule): CC(O)C(N)C(=O)O (stereo not drawn) ; field requested: Prin2
Result: 0.80

Task: Input NC(CCC(=O)O)C(=O)O (stereo not drawn)
Result: 0.34

Task: Try NC(Cc1c[nH]cn1)C(=O)O (stereo not drawn) next.
Result: -1.00

* * *

# Prin2 values compiled below
assay: Principal components analysis of amino acid physical properties from 31 studies; settings: second principal component; related to size or volume, smallest has highest score
The response must contain the number and no unit.

Here are 2 compounds together with their reported answers.
compound	readout kind	test result
NC(CC(=O)O)C(=O)O (stereo not drawn) [D]	Prin2	0.03
NCC(=O)O [G]	Prin2	3.08

Lab note: next compound to report on.
Task: Recorded Prin2 for NC(=O)CC(N)C(=O)O (stereo not drawn) [N] , please?
Result: 0.21
